Measured TGI values are reported for all entries that follow.
System: K-562 leukemia
ASSAY_NAME: NCI tumour cell line growth inhibition, 48 h

{"COMPOUND": "CCOC(=O)Cn1c(C)nc2nn(Cc3ccccc3)cc2c1=O", "TGI": "> 100 µM"}
{"COMPOUND": "CC1=NN(C(=O)Cc2ccccc2)C(=O)/C1=C\\c1cccc(O)c1", "TGI": "> 100 µM"}
{"COMPOUND": "O=C1CCCc2c(O)ccc(O)c21", "TGI": "> 100 µM"}
{"COMPOUND": "CCCS(=O)OC1C(C2COC(C)(C)O2)OC2OC(C)(C)OC21 (configuration not stated)", "TGI": "> 100 µM"}
{"COMPOUND": "Cc1cc2nnn(C3CCCO3)c2cc1C (configuration not stated)", "TGI": "> 100 µM"}
{"COMPOUND": "CCCNC(=O)Cn1c(-c2ccccc2)cc2ccccc21", "TGI": "> 100 µM"}
{"COMPOUND": "Clc1cccc(C2SCc3nc4ccccc4n32)c1Cl (configuration not stated)", "TGI": "45 µM"}
{"COMPOUND": "CCOC(=O)c1c(C)n(CCN2CCN(C)CC2)c2ccc(OC)cc12", "TGI": "45.8 µM"}
{"COMPOUND": "C[P+](C)(CC(F)(F)F)c1ccccc1", "TGI": "> 100 µM"}
{"COMPOUND": "CC(C)(C)c1ccc(C(O)(c2ccc(C(C)(C)C)cc2)c2ccc(C(C)(C)C)cc2)cc1", "TGI": "> 100 µM"}
{"COMPOUND": "Cc1cc(I)cc(CN(C)CCCCN2CCCC2)c1O", "TGI": "24.2 µM"}
{"COMPOUND": "NC(=O)Nc1n[nH]c(-c2ccccc2)n1", "TGI": "> 100 µM"}
